Assay: Mouse blood and tissue PK (LC/MS-MS)
Format: in vivo
Details: mouse, whole blood, oral, 25 mg/kg, Model Development Dataset; 25mg/kg_study8; 8 h; read-out: Blood Concentration
experimental.endpoint: concentration at 8 h
Write the quantity with the unit trailing the number.

Notebook: "CCn1c(-c2cc(N3CCN(C)CC3)cnc2[C@H](C)OC)c2c3cc(ccc31)-c1csc(n1)C[C@H](NC(=O)[C@H]1C[C@@H]1C)C(=O)N1CCC[C@H](N1)C(=O)OCC(C)(C)C2" , concentration at 8 h read as 802 nM

---

Experiment: Mouse blood and tissue PK (LC/MS-MS)
Assay type: in vivo
Conditions: mouse, whole blood, oral, 25 mg/kg, Model Validation Dataset; 25mg/kg_study6; 2 h; read-out: Blood Concentration
Method: For single-dose PKPD study, mice were randomized and assigned into groups (n = 3/dose/time point). […] Blood and tissues, including the tumor, brain, colon, ear skin, and muscle, were harvested at indicated time points. […] The whole blood, tumor, brain, colon, and ear skin concentrations of RMC-6236 were determined using liquid chromatography–tandem mass spectrometry (LC/MS-MS) methods. […] Concentrations reported as below the quantification limit were treated as zero for PK analysis. […]
experimental.endpoint: concentration at 2 h (nM)
Supply the numeric figure in nM, leaving out any unit text.

Measured concentration at 2 h of "CCn1c(-c2cc(N3CCN(C)CC3)cnc2[C@H](C)OC)c2c3cc(ccc31)-c1csc(n1)C[C@H](NC(=O)[C@H]1C[C@@H]1C)C(=O)N1CCC[C@H](N1)C(=O)OCC(C)(C)C2" : 1540

# credit: paper PMC11149917
